These measurements were taken from ChEMBL document CHEMBL1124266.

assay: Pseudo-first order rate constant at pH 3 followed spectrophotometrically; type: ADME; further: unit not given here
RECORDED_METRIC: k
Please respond with just the number, no unit label.

Query Cc1c[nH]c2c1C13CC1CN(C(=O)c1cc4cc(NC(N)=O)ccc4[nH]1)C3=CC2=O (centres undefined) yields k of 1e-05

Looking up Cc1c[nH]c2c1C13CC1CN(C(=O)c1ccccc1)C3=CC2=O (centres undefined) , I found its k recorded as 9e-06

Consider COc1ccc2[nH]c(C(=O)N3CC4CC45C3=CC(=O)c3[nH]cc(C)c35)cc2c1 (centres undefined) . Its measured k is 1e-05

Form: compound = COc1c(O)ccc2cc(C(=O)N3CC4CC45C3=CC(=O)c3[nH]cc(C)c35)[nH]c12 (centres undefined) ; k = 1e-05

So, Cc1c[nH]c2c1C13CC1CN(C(=O)c1cc4ccccc4n1C)C3=CC2=O (centres undefined) ? Its k was 1e-05

k measured on Cc1c[nH]c2c1C13CC1CN(C(=O)c1cc4ccccc4o1)C3=CC2=O (centres undefined) = 1.1e-05

The compound listed as Cc1c[nH]c2c1C13CC1CN(C(=O)c1cc4ccccc4s1)C3=CC2=O (centres undefined) has a reported k of 1.1e-05

What the record says about Cc1c[nH]c2c1C13CC1CN(C(=O)c1cc4cc(NC(=O)c5cc6ccccc6o5)ccc4[nH]1)C3=CC2=O (centres undefined) : k is 1e-05

Per the records, this compound ( Cc1c[nH]c2c1C13CC1CN(S(C)(=O)=O)C3=CC2=O (centres undefined) ) has k equal to 3e-06

Lab note: measured k of Cc1c[nH]c2c1C13CC1CN(C(=O)c1ccc4ccccc4n1)C3=CC2=O (centres undefined) was 1.2e-05

The compound listed as Cc1c[nH]c2c1C13CC1CN(C(=O)OC(C)(C)C)C3=CC2=O (centres undefined) has a reported k of 5e-06

Cc1c[nH]c2c1C13CC1CN(C(=O)c1ccccn1)C3=CC2=O (centres undefined) yielded k of 1.2e-05

For CCCCCC(=O)N1CC2CC23C1=CC(=O)c1[nH]cc(C)c13 (centres undefined) the compound record lists k as 8e-06

Lab note: Cc1c[nH]c2c1C13CC1CN(C(=O)c1cc4ccccc4[nH]1)C3=CC2=O (centres undefined) gave k of 1e-05
